Kindly supply the reported CC50 values for the records listed here.
# measurement-protocol: HEp-2 cell cytotoxicity, dose response, cytotoxicity control for RSV inhibitor project, HTS (AID 2410)
# Format: functional
# condition: human respiratory syncytial virus
Calls of active or inactive are those of the source.

// below: answered molecules
COc1ccc(Nc2nc(-c3cccs3)nc3ccccc23)cc1S(=O)(=O)N1CCOCC1 : 17.1 µM (active)
COc1ccc(Cn2nnnc2C(CC(C)C)N2CCN(c3ccccc3)CC2)cc1 (stereo not drawn) : > 50 µM (active)
Cc1ccc(/C(C#N)=C\c2cn(C)c3ccccc23)cc1 : 33.5 µM (active)
COC(=O)c1sccc1NC(=O)CN1CCN(c2ccc(F)cc2)CC1 : 22.2 µM (active)
COc1ccc(-c2nnc(OCc3nc4ccccc4n3C)c3ccccc23)cc1 : 38.6 µM (active)
COc1ccc(-c2cc(-c3ccccc3)nc(Cl)n2)cc1OC : 19.1 µM (active)

Hi team, please reply with CC50 for each item in this list.
1. O=c1ccc2ccc(OCCOc3cccc(Cl)c3)cc2o1
2. O=C(NCc1ccccc1Cl)C(=O)c1c[nH]c2ccccc12

Ans.
1: 42.4 µM (active); 2: > 6.25 µM (active)

* * *

Below are AC50 values measured for Cytochrome P450 2C9 (Homo sapiens).

// below: answered compounds
CC(C)(C)c1ccc(S(=O)(=O)/C=C\C#N)cc1 : 7.94 µM (inconclusive)
CN1CCN(c2ccc([N+](=O)[O-])c(N/N=C3\CN4CCC3CC4)c2)CC1 : 0.01 µM (inconclusive)
CN(N=O)c1cc(O)ccc1O [DEPHOSTATIN] : 10 µM (inconclusive)

Hi team, please reply with AC50 for each item in this list.
1. S=C1N(c2ccccc2)C(c2ccc(Cl)cc2)N2CCCN12 (configuration not stated)
2. Cc1ccc(Cn2nnc3c(O)nc(C4CCCN(C(=O)Nc5ccc(F)cc5F)C4)nc32)cc1 (configuration not stated)
3. COC1(C[S+]([O-])c2ccccc2)CCN(CCc2c[nH]c3ccc(F)cc23)CC1 (configuration not stated)

Ans.
1: 10 µM (inconclusive); 2: 22.4 µM (inconclusive); 3: 25.1 µM (inconclusive)

Hi team, please reply with AC50 for each item in this list.
1. O=C(O)c1cc2cc(Cl)ccc2oc1=O
2. CN(C)Cc1cc(O)c(O)c(CN(C)C)c1
3. Cn1c(=O)c(-c2cccc(Cl)c2)nc2cncnc21
4. O=C(Oc1ccccc1)N1CCC[C@@]2(CCN(c3ccccn3)C2)C1

Ans.
1: 0.00562 µM (inconclusive); 2: 7.94 µM (inconclusive); 3: 39.8 µM (inconclusive); 4: 39.8 µM (inconclusive)

Hi team, please reply with AC50 for each item in this list.
1. FC(F)(F)c1ccccc1-c1nc(Nc2ccncc2)c2ccccc2n1
2. Cc1ccc(C)c(N2CCN(C(=O)C3CCN(S(=O)(=O)c4cccc5nsnc45)CC3)CC2)c1

Ans.
1: 0.794 µM (inconclusive); 2: 7.08 µM (inconclusive)

* * *

# experimental-target: Sentrin-specific protease 6 (Homo sapiens);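 note: Luminescence-based dose-response confirmatory assay of SENP6 inhibition, following up an ultra-high-throughput screen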
# Sequence (Q9GZR1 whole entry): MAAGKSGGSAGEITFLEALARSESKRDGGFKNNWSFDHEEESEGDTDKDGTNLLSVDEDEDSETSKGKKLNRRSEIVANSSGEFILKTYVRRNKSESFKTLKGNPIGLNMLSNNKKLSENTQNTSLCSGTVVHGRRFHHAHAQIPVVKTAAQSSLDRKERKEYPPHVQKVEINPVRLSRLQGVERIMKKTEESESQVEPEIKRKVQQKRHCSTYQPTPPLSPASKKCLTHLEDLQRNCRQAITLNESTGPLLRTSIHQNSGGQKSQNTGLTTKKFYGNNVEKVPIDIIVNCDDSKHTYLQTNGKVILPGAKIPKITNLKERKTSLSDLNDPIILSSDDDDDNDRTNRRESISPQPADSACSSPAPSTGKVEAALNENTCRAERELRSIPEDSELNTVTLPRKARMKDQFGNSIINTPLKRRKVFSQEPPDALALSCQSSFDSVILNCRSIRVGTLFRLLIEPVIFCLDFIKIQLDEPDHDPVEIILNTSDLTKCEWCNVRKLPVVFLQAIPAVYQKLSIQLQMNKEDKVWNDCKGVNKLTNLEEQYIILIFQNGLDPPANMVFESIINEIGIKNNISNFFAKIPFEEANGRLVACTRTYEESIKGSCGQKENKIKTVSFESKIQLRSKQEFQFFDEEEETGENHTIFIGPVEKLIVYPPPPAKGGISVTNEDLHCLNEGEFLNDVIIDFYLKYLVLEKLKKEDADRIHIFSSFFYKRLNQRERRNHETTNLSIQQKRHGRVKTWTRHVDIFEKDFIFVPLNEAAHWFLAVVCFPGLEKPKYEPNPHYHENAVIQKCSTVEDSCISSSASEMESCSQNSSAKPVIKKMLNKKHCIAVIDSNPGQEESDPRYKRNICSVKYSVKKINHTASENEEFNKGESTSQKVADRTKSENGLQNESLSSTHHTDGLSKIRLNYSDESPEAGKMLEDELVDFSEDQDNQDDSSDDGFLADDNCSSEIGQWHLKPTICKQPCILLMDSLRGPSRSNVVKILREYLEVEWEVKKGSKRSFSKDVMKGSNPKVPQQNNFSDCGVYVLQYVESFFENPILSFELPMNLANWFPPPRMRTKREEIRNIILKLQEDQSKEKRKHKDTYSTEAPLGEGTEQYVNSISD
# Type: functional
The source made the active and inactive calls.
Hello, when you answer, please use one of the following outcomes: Y = active, N = inactive

Consider the worked cases shown below.
O=C(NNc1cc(N2CCCC2)nc(N2CCCC2)n1)c1ccc([N+](=O)[O-])cc1 : Y
NC(=O)c1c(NC(=O)c2ccccc2)sc2c1CCC2 : N

Qu. Fill in: this test's call for Nc1ccc(/C=C/c2ccc3ncccc3c2)cc1 is ___
Ans. Y

Qu. Fill in: this test's call for CC(=O)Nc1ccc(C(=O)COC(=O)C2CCCCC2)c(F)c1 is ___
Ans. Y

Qu. Fill in: this test's call for CCN(CC)c1ccc(NC(=O)COC(=O)c2cccs2)cc1 is ___
Ans. Y

* * *

Below are AC50 values measured for Cytochrome P450 1A2 (Homo sapiens, UniProt P05177).

CN(N=O)c1cc(O)ccc1O [DEPHOSTATIN] : 31.6 µM (inconclusive)
N[C@@H](CCCCP(=O)(O)O)C(=O)O : 31.6 µM (inconclusive)
N#CCCn1c(=O)c(-c2ccc(F)cc2)nc2cnc(N3CCOCC3)nc21 : 20 µM (inconclusive)
CS(=O)(=O)N1CCC2(CC1)CN(Cc1nccs1)C2 : 6.31 µM (inconclusive)
COc1ccc(-c2nc3cnc(N(C)C)nc3n(CCc3ccccc3)c2=O)cc1 : 1.26 µM (inconclusive)
O=C(Nc1cccc(Cl)c1)Nn1cnnc1 : 3.16 µM (inconclusive)
COc1cc2c(cc1OC)CN(CC(=O)Nc1ccc3c(c1)OCO3)CC2 : 20 µM (inconclusive)
CCN(CC)CCNC(=O)COc1ccc(OC)cc1 [MEFEXAMIDE] : 12.6 µM (inconclusive)
N[C@@]1(C(=O)O)CN[C@H](C(=O)O)C1 : 31.6 µM (inconclusive)
Cc1nn(-c2ccc(F)cc2)c(O)c1C(c1cccc(O)c1)c1c(C)[nH]n(-c2ccc(F)cc2)c1=O (stereo not drawn) : 25.1 µM (inconclusive)

Hi team, please reply with AC50 for each item in this list.
1. COc1cc2c(cc1OC)C(CCN)=NCC2
2. N#Cc1ccccc1/C=N/Nc1nc(-c2ccccc2)c2cc(Cl)ccc2n1
3. Cc1ccc(Cn2nnc3c(O)nc(C4CCCN(C(=O)Nc5ccc(F)cc5F)C4)nc32)cc1 (stereo not drawn)
4. CCN(Cc1cc(Cl)cc(C)c1O)Cc1c(O)ccc2ccccc12
5. COc1ccccc1/C=C/C=N/N1CCN(Cc2ccc(Cl)cc2)CC1.Cl
6. COC(=O)c1nnc(NC(=O)c2ccccc2)[nH]1
7. O=C(O)c1cc2cc(Cl)ccc2oc1=O

Ans.
1: 5.01 µM (inconclusive); 2: 7.08 µM (inconclusive); 3: 31.6 µM (inconclusive); 4: 1 µM (inconclusive); 5: 15.8 µM (inconclusive); 6: 17.8 µM (inconclusive); 7: 0.0251 µM (inconclusive)

Qu. Recall and state the measured AC50 for COc1cccc(/C=N\NC(=O)C2C(=O)NCC2c2ccccc2)c1O (stereo not drawn) .
Ans. 17.8 µM (inconclusive)

* * *

# experimental-target: Luciferin 4-monooxygenase (Photinus pyralis, UniProt P08659)
# Sequence (P08659 whole entry): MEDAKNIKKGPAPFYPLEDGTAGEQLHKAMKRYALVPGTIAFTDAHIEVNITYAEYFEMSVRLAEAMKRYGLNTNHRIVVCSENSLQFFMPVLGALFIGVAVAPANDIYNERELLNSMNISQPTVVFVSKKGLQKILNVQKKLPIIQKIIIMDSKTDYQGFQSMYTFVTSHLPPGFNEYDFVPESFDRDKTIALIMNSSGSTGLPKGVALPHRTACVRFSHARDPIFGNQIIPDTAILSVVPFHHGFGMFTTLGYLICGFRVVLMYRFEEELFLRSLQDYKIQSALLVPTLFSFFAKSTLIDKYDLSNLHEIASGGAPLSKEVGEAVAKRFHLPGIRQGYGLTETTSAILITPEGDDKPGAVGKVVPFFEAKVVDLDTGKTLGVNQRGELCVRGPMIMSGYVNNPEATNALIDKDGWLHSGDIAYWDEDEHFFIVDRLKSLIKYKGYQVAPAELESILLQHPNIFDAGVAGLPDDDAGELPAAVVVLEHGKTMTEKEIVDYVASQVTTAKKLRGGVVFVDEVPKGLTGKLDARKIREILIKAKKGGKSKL
# measurement-protocol: firefly luciferase enzyme inhibitors, dose response, biochemical, luminescence (AID 1891)
Active and inactive are the calls of the source.
measure: EC50

Nc1ccc(-c2nc3cc(N)ccc3o2)cc1 : > 112 µM (not active)
NC(=O)NC(=O)COC(=O)c1ccc2c(c1)C(=O)N(Cc1ccccc1)C2=O : > 112 µM (not active)
O=C(Nc1ccc(Cl)cc1)Nc1ccccc1C(=O)O : < 0.088 µM (active)
Cn1cc(S(=O)(=O)N2CCc3ccccc32)cc1C(=O)Nc1ccc(Cl)cc1 : > 112 µM (not active)
Cc1ccc(SC(C)C(=O)Nc2ccccc2C(=O)N2CCOCC2)cc1 (centres undefined) : > 112 µM (not active)

Hi team, please reply with EC50 for each item in this list.
1. CC1(C)CC(=O)C2=C(C1)N(Cc1ccccc1)C(=O)C2(O)C(F)(F)F (centres undefined)
2. O=C(/C=C/Nc1ccc(F)cc1F)c1cccs1
3. O=C1C=C(c2ccc(Cl)cc2)C(=O)N1Nc1ccccc1
4. O=C(CN1C(=O)CCC1=O)Nc1nc(-c2cccs2)cs1
5. CCOc1ccc2nc(NC(=O)c3ccoc3C)sc2c1
6. CC(C)(C)c1ccc(C(=O)ON=C(N)c2ccccc2)cc1
7. CCOc1cc(CNCCN2CCOCC2)ccc1OCc1ccccc1Cl
8. Cc1cccc(N(C)C(=O)c2cc3c(O)nc4ccc(C)cc4c3s2)c1

Ans.
1: > 112 µM (not active); 2: 1.09 µM (active); 3: > 112 µM (not active); 4: > 112 µM (not active); 5: < 0.088 µM (active); 6: 5.63 µM (active); 7: > 112 µM (not active); 8: > 112 µM (not active)

Hi team, please reply with EC50 for each item in this list.
1. O=C1CSC(c2cn(-c3ccccc3)nc2-c2ccc3c(c2)OCCO3)N1CCN1CCOCC1 (centres undefined)
2. N=c1c2c(ncn1CCCO)Oc1c(ccc3ccccc13)C2c1ccccc1 (centres undefined)

Ans.
["> 112 µM (not active)", "> 112 µM (not active)"]

Hi team, please reply with EC50 for each item in this list.
1. CC(C)S(=O)(=O)c1csc(C(=O)Nc2ccc(F)cc2)c1N
2. O=C(Nc1ccccc1)C(=O)Nc1ccc2c(c1)N(C(=O)C1CC1)CCC2
3. Cc1c(C(=O)N2CCCC2)sc(NC(=O)c2ccc(Cl)cc2)c1C#N
4. Cn1c(=O)oc2cc(S(=O)(=O)N3CCN(c4ccc(F)cc4)CC3)ccc21

Ans.
["2.33 µM (active)", "1.13 µM (active)", "> 112 µM (not active)", "> 112 µM (not active)"]

* * *

# measurement-protocol: inhibitors of HIV Env-driven cell fusion, dose response, cherry-pick (AID 652057)
# Format: functional, cell-based
Active and inactive are the calls of the source.
measure: AC50

O=C(Nc1ccc(Cl)c(Cl)c1)N[C@@H]1CC[C@@H](CCn2cc(C3CCCCC3)nn2)O[C@@H]1CO : 46.9 µM (active)

Hi team, please reply with AC50 for each item in this list.
1. Cc1ccccc1-c1nc(CN2CCC(C(=O)NCCC3=CCCCC3)CC2)c(C)o1
2. COc1ccc(CNC(=O)N(C)C[C@H]2OCc3ccccc3-c3c(n(C)c4ccccc34)C(=O)N([C@@H](C)CO)C[C@@H]2C)cc1
3. COc1cc(C)c(CNCCc2c[nH]c3ccccc23)cc1C
4. O=C(C[C@@H]1C=C[C@H](NC(=O)c2ccccc2)[C@H](CO)O1)NCc1ccc(Oc2ccccc2)cc1

Ans.
["4.21 µM (active)", "< 0.26 µM (active)", "1.51 µM (active)", "24.7 µM (active)"]

From: ChEMBL document CHEMBL1201862
